test system: HCC-2998 colon; experiment: NCI-60 one-dose screen, 48 h (100 = growth as untreated, 0 = no growth, -100 = all killed); settings: 10 µM unless noted
The panel holds about 83,000 compounds, 20% with a hit somewhere; the sample as a whole holds those more often. Activity calls are given as the source filed them. Rule for the calls: active = growth percent below 10; inactive = the rest.
Give growth for every item shown.

# count of solved cases: 8
- compound: "Cc1ccc(C2=NNC(c3sc(Cl)nc3Cl)C2)cc1 (stereo not given)"
  growth: "92.8% (inactive)"
- compound: "CC1CN(/N=C/c2ccc([N+](=O)[O-])o2)C(=N)O1 (stereo not given)"
  growth: "98.3% (inactive)"
- compound: "Nc1ccc(Oc2c(F)c(F)c(Oc3ccc(N)cc3)c(F)c2F)cc1"
  growth: "73.1% (inactive)"
- compound: "Nc1ccccc1C#Cc1ccccc1C#Cc1ccc(OCCCCCCOc2ccc(C#Cc3ccccc3C#Cc3ccccc3N)cc2)cc1"
  growth: "95.5% (inactive)"
- compound: "COc1ccc(-c2nnc3c4[nH]cnc4ncn23)c(OC)c1"
  growth: "26.3% (inactive)"
- compound: "CSc1nc2nc3c(c(-c4ccc(C)cc4)c2c(=O)[nH]1)CN(C)C/C3=C\\c1ccc(C)cc1"
  growth: "96.5% (inactive)"
- compound: "O=C(CNC(=O)c1cccc2ccccc12)Nc1ccccc1Oc1cccc(O)c1"
  growth: "58.3% [5 µM] (inactive)"
- compound: "O=C(C(=O)N1CCOCC1)c1cn(CCCn2cc(C(=O)C(=O)N3CCOCC3)c3ccccc32)c2ccccc12"
  growth: "108% (inactive)"

Record growth per entry; entries follow.
1. CCOc1nc(-c2ccco2)n2nc(-c3ccco3)cc2n1
2. O=c1oc2c(cc1-c1ccc([N+](=O)[O-])cc1)C(O)Oc1ccccc1-2 (stereo not given)

Result:
1. 123% (inactive)
2. 94.3% (inactive)

Where do the numbers come from? From PubChem BioAssay (NCI).
